Measured values drawn from patent US9605004B2 for this set.

Tested on: a variety of test species
Assay: Post-emergence herbicidal activity (Example 8b, Table 3)
Assay type: in vivo
Conditions: Zea mays; application post-emergence; rate 1000 g/ha; evaluated after 13 days; scale 0-5
Procedure: Seeds of a variety of test species were sown in standard soil in pots. […] After 13 days, the test was evaluated (5=total damage to plant; 0=no damage to plant).
Answer each item with its documented Herbicidal damage score, ZEAMX.
Just the number.

Identify measured Herbicidal damage score, ZEAMX associated with CC1=C(Cl)C(=O)N(c2cc(C(C)(C)C)n(C)n2)C1OC(=O)OCC(C)C (stereo not shown) [Compound F1]
5

Identify measured Herbicidal damage score, ZEAMX associated with CC1=C(Cl)C(=O)N(c2cc(C(C)(C)C)[nH]n2)C1O (stereo not shown)
5

Identify measured Herbicidal damage score, ZEAMX associated with COC1=C(OC)C(O)N(c2cc(C(C)(C)C)n(C)n2)C1=O (stereo not shown)
3

Identify measured Herbicidal damage score, ZEAMX associated with CC1=C(Cl)C(=O)N(c2cc(C(F)(F)F)n(C(C)C)n2)C1O (stereo not shown) [Compound C7]
2

Identify measured Herbicidal damage score, ZEAMX associated with CC1=C(Br)C(=O)N(c2cc(C(C)(C)C)n(C)n2)C1O (stereo not shown) [Compound J1]
4

Identify measured Herbicidal damage score, ZEAMX associated with CC1=C(Cl)C(=O)N(c2cc(C(F)(F)F)n(CC(F)(F)F)n2)C1O (stereo not shown) [Compound C5]
3

Identify measured Herbicidal damage score, ZEAMX associated with CC1=C(Br)C(=O)N(c2nn(C)c3c2CCC3(C)C)C1O (stereo not shown)
4

Identify measured Herbicidal damage score, ZEAMX associated with CCn1nc(N2C(=O)C(Cl)=C(C)C2O)cc1C(F)(F)F (stereo not shown) [Compound C6]
3

Identify measured Herbicidal damage score, ZEAMX associated with CC1=C(Cl)C(=O)N(c2cc(C(F)(F)C(F)(F)F)[nH]n2)C1O (stereo not shown)
4

Identify measured Herbicidal damage score, ZEAMX associated with CC1=C(Cl)C(=O)N(c2cc(C#CCC(C)C)n(C)n2)C1O (stereo not shown)
0

Identify measured Herbicidal damage score, ZEAMX associated with CC(C)=C(C)c1cc(N2C(=O)C(Cl)=C(C)C2O)nn1C (stereo not shown)
1

Identify measured Herbicidal damage score, ZEAMX associated with CC(C)=CCc1cc(N2C(=O)C(Br)=C(C)C2O)nn1C (stereo not shown)
0

Identify measured Herbicidal damage score, ZEAMX associated with CC1=C(Cl)C(=O)N(c2cc(C(C)C)[nH]n2)C1O (stereo not shown)
5

Identify measured Herbicidal damage score, ZEAMX associated with CCCC1=C(Br)C(=O)N(c2nn(C)c(C(C)(C)C)c2C#N)C1O (stereo not shown)
2

Identify measured Herbicidal damage score, ZEAMX associated with CCC1=C(Br)C(=O)N(c2nn(C)c(C(C)(C)C)c2C#N)C1O (stereo not shown)
1

Identify measured Herbicidal damage score, ZEAMX associated with CSc1cc(N2C(=O)C(Cl)=C(C)C2O)nn1C (stereo not shown)
5

---

Test system: a variety of test species
Experiment: Post-emergence herbicidal activity (Example 8b, Table 3)
Format: in vivo
Details: Zea mays; application post-emergence; rate 1000 g/ha; evaluated after 13 days; scale 0-5
Classify as follows. Reported Herbicidal damage score, ZEAMX greater than or equal to 3: MET. Reported Herbicidal damage score, ZEAMX below: NOT MET.

Exam item: decide whether the reported Herbicidal damage score, ZEAMX for CC1=C(Cl)C(=O)N(c2cc3n(n2)CCCC3(C)C)C1O (stereo not shown) [Compound G9] is at least 3.
MET

Exam item: decide whether the reported Herbicidal damage score, ZEAMX for CSc1c(C#N)c(N2C(=O)C(Cl)=C(C)C2O)nn1C (stereo not shown) is at least 3.
NOT MET

Exam item: decide whether the reported Herbicidal damage score, ZEAMX for COC1=C(C)C(O)N(c2cc(C(F)(F)F)n(C)n2)C1=O (stereo not shown) is at least 3.
MET

Exam item: decide whether the reported Herbicidal damage score, ZEAMX for CC1=C(Br)C(=O)N(c2cc3n(n2)CCSC3(C)C)C1O (stereo not shown) is at least 3.
NOT MET

Exam item: decide whether the reported Herbicidal damage score, ZEAMX for CC1=C(Cl)C(=O)N(c2cc(I)n(C)n2)C1O (stereo not shown) [Compound B8] is at least 3.
MET

Exam item: decide whether the reported Herbicidal damage score, ZEAMX for CCOC(C)(CC)c1cc(N2C(=O)C(Cl)=C(C)C2O)nn1C (stereo not shown) is at least 3.
MET

Exam item: decide whether the reported Herbicidal damage score, ZEAMX for CC#Cc1cc(N2C(=O)C(Cl)=C(C)C2O)nn1C (stereo not shown) is at least 3.
NOT MET

Exam item: decide whether the reported Herbicidal damage score, ZEAMX for CC1=C(Br)C(=O)N(c2cc3n(n2)CC[S+]([O-])C3(C)C)C1O (mixture of isomers) is at least 3.
NOT MET

Exam item: decide whether the reported Herbicidal damage score, ZEAMX for COC1=C(C)C(O)N(c2cc3n(n2)CCCC3(C)C)C1=O (stereo not shown) is at least 3.
MET

Exam item: decide whether the reported Herbicidal damage score, ZEAMX for CC(C)=CCc1cc(N2C(=O)C(Cl)=C(C)C2O)nn1C (stereo not shown) [Compound B22] is at least 3.
NOT MET

Exam item: decide whether the reported Herbicidal damage score, ZEAMX for CC1=C(Cl)C(=O)N(c2nn(C)c3c2CCCCC3(C)C)C1O (stereo not shown) is at least 3.
NOT MET

Exam item: decide whether the reported Herbicidal damage score, ZEAMX for CC1=C(Br)C(=O)N(c2cc(C(F)(F)F)n(C)n2)C1O (stereo not shown) is at least 3.
MET

Exam item: decide whether the reported Herbicidal damage score, ZEAMX for CC1=C(Cl)C(=O)N(c2cc(C(F)C(C)(C)C)n(C)n2)C1O (mixture of isomers) is at least 3.
MET

Exam item: decide whether the reported Herbicidal damage score, ZEAMX for CC1=C(Cl)C(=O)N(c2cc(C3CC3)[nH]n2)C1O (stereo not shown) is at least 3.
MET

Exam item: decide whether the reported Herbicidal damage score, ZEAMX for CCO/C=C\c1cc(N2C(=O)C(Cl)=C(C)C2O)nn1C (stereo not shown) is at least 3.
NOT MET

Exam item: decide whether the reported Herbicidal damage score, ZEAMX for CC1=C(Cl)C(=O)N(c2cc3n(n2)CCCC3(C)C)C1O (stereo not shown) [Compound G4] is at least 3.
MET

Exam item: decide whether the reported Herbicidal damage score, ZEAMX for CC1=C(Cl)C(=O)N(c2cc(C(C)(C)C)n(C)n2)C1OC(=O)OCC(C)C (stereo not shown) [Compound F4] is at least 3.
MET
